# condition.summary: in acetone, 305.2 K
outcome.measure: solubility (mole fraction)
Numbers only.

Request: Give the value of solubility (mole fraction) reported for the following: COP(=O)(NC(C)=O)SC (stereo unspecified)
Response: 0.0923

====

# condition.summary: in acetone, 299.45 K
outcome.measure: solubility (mole fraction)

Request: Give the value of solubility (mole fraction) reported for the following: COP(=O)(NC(C)=O)SC (stereo unspecified)
Response: 0.068

====

# condition.summary: in acetone, 315.8 K
outcome.measure: solubility (mole fraction)
Answers are plain numbers.

Request: Give the value of solubility (mole fraction) reported for the following: COP(=O)(NC(C)=O)SC (stereo unspecified)
Response: 0.167

====

# condition.summary: in ethyl acetate, 324.95 K
outcome.measure: solubility (mole fraction)
Answers are plain numbers.

Request: Give the value of solubility (mole fraction) reported for the following: COP(=O)(NC(C)=O)SC (stereo unspecified)
Response: 0.0965

====

# condition.summary: in dichloromethane, 298.45 K
outcome.measure: solubility (mole fraction)
Numbers only.

Request: Give the value of solubility (mole fraction) reported for the following: COP(=O)(NC(C)=O)SC (stereo unspecified)
Response: 0.21

====

# condition.summary: in ethyl acetate, 310.75 K
outcome.measure: solubility (mole fraction)
One number for each entry.

Request: Give the value of solubility (mole fraction) reported for the following: COP(=O)(NC(C)=O)SC (stereo unspecified)
Response: 0.0408

====

# condition.summary: in acetone, 313.75 K
outcome.measure: solubility (mole fraction)
Give bare numbers.

Request: Give the value of solubility (mole fraction) reported for the following: COP(=O)(NC(C)=O)SC (stereo unspecified)
Response: 0.149

====

# condition.summary: in ethyl acetate, 307.9 K
outcome.measure: solubility (mole fraction)
Answers are plain numbers.

Request: Give the value of solubility (mole fraction) reported for the following: COP(=O)(NC(C)=O)SC (stereo unspecified)
Response: 0.035

====

# condition.summary: in ethyl acetate, 327.6 K
outcome.measure: solubility (mole fraction)
Answers are plain numbers.

Request: Give the value of solubility (mole fraction) reported for the following: COP(=O)(NC(C)=O)SC (stereo unspecified)
Response: 0.118

====

# condition.summary: in isopropanol, 319.45 K
outcome.measure: solubility (mole fraction)
Answers are plain numbers.

Request: Give the value of solubility (mole fraction) reported for the following: COP(=O)(NC(C)=O)SC (stereo unspecified)
Response: 0.193

====

# condition.summary: in dichloromethane, 301.05 K
outcome.measure: solubility (mole fraction)
Give bare numbers.

Request: Give the value of solubility (mole fraction) reported for the following: COP(=O)(NC(C)=O)SC (stereo unspecified)
Response: 0.226

====

# condition.summary: in ethyl acetate, 321.55 K
outcome.measure: solubility (mole fraction)
One number for each entry.

Request: Give the value of solubility (mole fraction) reported for the following: COP(=O)(NC(C)=O)SC (stereo unspecified)
Response: 0.0779

====

# condition.summary: in dichloromethane, 302.3 K
outcome.measure: solubility (mole fraction)
Answers are plain numbers.

Request: Give the value of solubility (mole fraction) reported for the following: COP(=O)(NC(C)=O)SC (stereo unspecified)
Response: 0.233

====

# condition.summary: in acetone, 302.6 K
outcome.measure: solubility (mole fraction)
One number for each entry.

Request: Give the value of solubility (mole fraction) reported for the following: COP(=O)(NC(C)=O)SC (stereo unspecified)
Response: 0.0811

====

# condition.summary: in acetone, 309.8 K
outcome.measure: solubility (mole fraction)
Numbers only.

Request: Give the value of solubility (mole fraction) reported for the following: COP(=O)(NC(C)=O)SC (stereo unspecified)
Response: 0.119
